# systemUnderTest: Androgen Receptor (Homo sapiens, UniProt P10275, T878A)
# Construct: the AR gene was modified, using CRISPR/Cas9 editing, so the expressed AR protein included an 11 amino acid HiBiT tag; endogenous in cells; host or cells: clonal LnCaP-derived line, AR gene edited by CRISPR/Cas9
# Sequence (P10275 whole entry T878A): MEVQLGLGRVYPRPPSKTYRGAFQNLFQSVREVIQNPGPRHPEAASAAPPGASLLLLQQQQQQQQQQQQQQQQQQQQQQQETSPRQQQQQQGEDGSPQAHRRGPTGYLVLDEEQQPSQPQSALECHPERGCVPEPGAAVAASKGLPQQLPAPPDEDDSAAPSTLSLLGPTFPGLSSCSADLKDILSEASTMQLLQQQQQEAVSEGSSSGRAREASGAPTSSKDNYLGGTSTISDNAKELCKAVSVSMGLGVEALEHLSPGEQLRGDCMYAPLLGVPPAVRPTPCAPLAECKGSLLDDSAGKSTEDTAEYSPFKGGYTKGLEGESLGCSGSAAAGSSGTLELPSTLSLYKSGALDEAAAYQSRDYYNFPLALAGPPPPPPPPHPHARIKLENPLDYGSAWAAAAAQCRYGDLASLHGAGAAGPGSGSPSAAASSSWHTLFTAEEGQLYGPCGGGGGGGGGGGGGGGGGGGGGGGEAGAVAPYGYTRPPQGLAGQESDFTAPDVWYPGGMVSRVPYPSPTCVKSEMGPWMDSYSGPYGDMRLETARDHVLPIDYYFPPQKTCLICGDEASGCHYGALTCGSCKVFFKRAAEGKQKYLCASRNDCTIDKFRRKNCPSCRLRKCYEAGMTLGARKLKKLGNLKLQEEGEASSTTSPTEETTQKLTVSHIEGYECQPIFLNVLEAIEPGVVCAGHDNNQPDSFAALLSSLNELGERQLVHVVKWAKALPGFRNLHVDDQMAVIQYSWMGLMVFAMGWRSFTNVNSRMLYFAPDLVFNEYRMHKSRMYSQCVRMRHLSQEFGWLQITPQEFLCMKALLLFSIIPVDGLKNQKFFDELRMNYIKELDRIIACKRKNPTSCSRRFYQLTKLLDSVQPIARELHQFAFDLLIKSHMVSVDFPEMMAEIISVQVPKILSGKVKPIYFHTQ
# Sequence (Q96SW2 whole entry partner): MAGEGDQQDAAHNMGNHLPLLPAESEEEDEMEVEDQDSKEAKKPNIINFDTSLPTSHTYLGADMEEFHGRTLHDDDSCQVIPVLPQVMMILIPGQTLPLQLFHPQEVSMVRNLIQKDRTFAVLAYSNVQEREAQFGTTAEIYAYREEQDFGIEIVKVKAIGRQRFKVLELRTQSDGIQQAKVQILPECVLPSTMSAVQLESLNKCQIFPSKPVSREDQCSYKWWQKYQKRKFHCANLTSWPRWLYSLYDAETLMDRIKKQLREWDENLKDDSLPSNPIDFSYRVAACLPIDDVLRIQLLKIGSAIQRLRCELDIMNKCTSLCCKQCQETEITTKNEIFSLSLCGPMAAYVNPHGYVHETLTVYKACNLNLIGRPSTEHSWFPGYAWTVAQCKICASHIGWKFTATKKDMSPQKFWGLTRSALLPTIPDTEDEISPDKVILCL
# Sequence (Q16531 whole entry partner): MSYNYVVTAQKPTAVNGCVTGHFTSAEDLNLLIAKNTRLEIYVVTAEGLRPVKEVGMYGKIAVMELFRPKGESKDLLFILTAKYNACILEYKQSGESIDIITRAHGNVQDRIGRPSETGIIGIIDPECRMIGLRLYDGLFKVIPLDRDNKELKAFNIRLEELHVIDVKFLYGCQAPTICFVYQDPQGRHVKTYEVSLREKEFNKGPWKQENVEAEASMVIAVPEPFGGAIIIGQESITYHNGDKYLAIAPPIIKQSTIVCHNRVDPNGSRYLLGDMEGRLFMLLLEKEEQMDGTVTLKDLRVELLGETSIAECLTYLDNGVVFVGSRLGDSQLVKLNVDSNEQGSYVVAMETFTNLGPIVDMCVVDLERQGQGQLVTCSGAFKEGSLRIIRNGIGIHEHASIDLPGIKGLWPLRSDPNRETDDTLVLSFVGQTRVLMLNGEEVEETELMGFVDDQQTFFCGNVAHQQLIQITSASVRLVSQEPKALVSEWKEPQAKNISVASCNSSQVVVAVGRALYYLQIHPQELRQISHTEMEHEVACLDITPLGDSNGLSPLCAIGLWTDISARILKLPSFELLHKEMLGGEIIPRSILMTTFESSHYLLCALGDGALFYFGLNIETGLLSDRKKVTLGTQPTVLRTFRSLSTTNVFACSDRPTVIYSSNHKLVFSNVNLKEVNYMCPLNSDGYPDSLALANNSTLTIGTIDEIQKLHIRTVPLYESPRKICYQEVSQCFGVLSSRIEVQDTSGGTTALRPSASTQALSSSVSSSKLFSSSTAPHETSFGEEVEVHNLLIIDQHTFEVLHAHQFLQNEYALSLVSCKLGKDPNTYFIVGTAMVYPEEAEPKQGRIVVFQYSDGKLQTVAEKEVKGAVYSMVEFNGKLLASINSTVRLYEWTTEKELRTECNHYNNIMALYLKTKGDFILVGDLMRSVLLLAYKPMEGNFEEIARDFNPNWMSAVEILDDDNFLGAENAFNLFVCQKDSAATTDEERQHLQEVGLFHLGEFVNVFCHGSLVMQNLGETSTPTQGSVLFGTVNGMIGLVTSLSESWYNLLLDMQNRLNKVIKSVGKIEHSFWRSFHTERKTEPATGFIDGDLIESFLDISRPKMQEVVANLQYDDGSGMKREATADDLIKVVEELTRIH
# testSummary: Androgen Receptor Degradation Assay (Nano-Glo HiBiT)
# Type: cell-based
# particulars: LNCaP, 18 h, HiBiT-tagged AR in human LnCaP cells, read-out: mean asymptote max
Structures can show the parent of a compound that is named as a salt.
measurementLabel: Dmax

Query: Please give the measured Dmax for this molecule: N#Cc1ccc(O[C@H]2CC[C@H](NC(=O)c3ccc(N4CCN(C[C@H]5CC[C@H](n6ccc7c(N8CCC(=O)NC8=O)cccc76)CC5)CC4)nn3)CC2)cc1Cl [AR215, hydrochloride]
Result: ≥ 50%

Query: Endpoint output: Dmax of CC(C)n1ccc2c(N3CCC(=O)NC3=O)cc(C(=O)N3CCC4(CCCN(CCCCCc5ccc(C(=O)N[C@H]6CC[C@H](Oc7ccc(C#N)c(Cl)c7)CC6)cc5)C4)CC3)cc21 [EAR83] . Value?
Result: ≥ 50%

Query: Any idea what its Dmax is? The molecule is N#Cc1ccc(O[C@H]2CC[C@H](NC(=O)c3ccc(N4CCC(CN5CC[C@@H](n6ccc7c(N8CCC(=O)NC8=O)cccc76)[C@@H](F)C5)CC4)nn3)CC2)cc1Cl [EAR155, hydrochloride]
Result: ≥ 50%

Query: Any idea what its Dmax is? The molecule is CC1(C)CCN(c2ccc(C(=O)N[C@H]3CC[C@H](Oc4ccc(C#N)c(Cl)c4)CC3)nn2)CC1CN1CCC(n2ncc3c(N4CCC(=O)NC4=O)cccc32)CC1 (some centres unmarked) [EAR222]
Result: ≥ 50%

Query: Recorded Dmax of CC1(C)[C@H](NC(=O)c2cnc(N3CCC(CN4CCC(n5ncc6c(N7CCC(=O)NC7=O)cccc65)CC4)CC3)cn2)C(C)(C)[C@H]1Oc1ccc(C#N)c(Cl)c1 [EAR37, hydrochloride] , please.
Result: ≥ 50%

* * *

# systemUnderTest: Androgen Receptor (Homo sapiens, UniProt P10275, T878A)
# Construct: the AR gene was modified, using CRISPR/Cas9 editing, so the expressed AR protein included an 11 amino acid HiBiT tag; endogenous in cells; host or cells: clonal LnCaP-derived line, AR gene edited by CRISPR/Cas9
# testSummary: Androgen Receptor Degradation Assay (Nano-Glo HiBiT)
# Assay type: cell-based
# particulars: LNCaP, 18 h, HiBiT-tagged AR in human LnCaP cells, read-out: mean asymptote max
measurementLabel: Dmax

Look over these answered cases.
CC1(C)[C@H](NC(=O)c2ncc(N3CCC(CN4CCC(n5ncc6c(N7CCC(=O)NC7=O)ccnc65)CC4)CC3)cn2)C(C)(C)[C@H]1Oc1ccc(C#N)c(Cl)c1 [EAR272]; ≥ 50%
CC(C)n1ccc2c(N3CCC(=O)NC3=O)cc(C(=O)N(C)C3CCN(CCCCOc4ccc(C(=O)N[C@H]5CC[C@H](Oc6ccc(C#N)c(Cl)c6)CC5)nc4)CC3)cc21 [EAR64]; ≥ 50%

Okay, next one:
Query: Query (compound): C[C@@H]1CN(c2ccc(C#N)c(Cl)c2)[C@@H](C)CN1C(=O)c1ccc(N2CCC(CN3CCC(n4ncc5c(N6CCC(=O)NC6=O)cncc54)CC3)CC2)nn1 [EAR146] ; field requested: Dmax
Result: ≥ 50%

Origin of measurements: patent US20250205344A1
